- Test system: CCRIS mutagenicity, Ames/micronucleus/aberration tests
- experimental protocol: CCRIS mutagenicity studies
- particulars: Test System: AMES SALMONELLA TYPHIMURIUM; Strain/Indicator: TA1535; Metabolic Activation: RAT, LIVER, S-9, AROCLOR 1254; Method: STANDARD PLATE
Activity calls are given as the source filed them. How the calls were made is not given here.
Your answer must be one of the following: active, inactive

Task item: Hi, sorry to bother you, what did the test record for O=C(COc1cc(Cl)c(Cl)cc1Cl)N[C@@H](Cc1c[nH]c2ccccc12)C(=O)O ?
Reply: inactive

Others:
Task item: Hi, sorry to bother you, what did the test record for C=CC(=O)OCCCCCC ?
Reply: inactive

Task item: // query: CCOC(=O)c1cccc2cccnc12
Reply: inactive

Task item: // query: c1ccc2nccnc2c1
Reply: inactive
